Target: UniProt:P49137
Sequence (P49137 whole entry): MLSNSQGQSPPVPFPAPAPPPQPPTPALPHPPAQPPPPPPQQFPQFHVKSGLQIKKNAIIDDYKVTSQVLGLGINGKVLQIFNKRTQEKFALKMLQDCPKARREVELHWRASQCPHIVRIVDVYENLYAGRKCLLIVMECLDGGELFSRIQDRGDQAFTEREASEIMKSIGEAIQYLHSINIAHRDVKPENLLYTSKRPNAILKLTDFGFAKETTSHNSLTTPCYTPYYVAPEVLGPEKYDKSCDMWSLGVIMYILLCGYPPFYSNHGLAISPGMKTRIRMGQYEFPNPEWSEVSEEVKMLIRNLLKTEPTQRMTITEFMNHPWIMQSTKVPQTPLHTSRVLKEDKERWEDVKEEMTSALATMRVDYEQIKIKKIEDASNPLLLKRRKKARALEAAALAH
Test: MK2 degradation in human THP-1 monocytic cells (MSD, 24 h)
Format: cell-based
Parameters: endogenous in cells
Settings: THP-1 cells, read-out: MK2 MSD THP-1 degradation 24 h GMean External Abs DC50
Protocol: MK2 Degradation in Human THP-1 Monoctyic Cells […] After 3 more washes, the secondary detection antibody (SULFO-Tag anti rabbit antibody R32AB-5) was added at a final concentration of 1 microgram per ml at 25 microlitres per well and shaken at room temperature for 1 hour at 600 rpm. After 3 more washes, the 1×MSD (diluted from 5× concentrate with water) reading buffer was added at 150 microlitres per well and read on the MSD instrument Meso Sector S 600. […]
compounds and their reported DC50

Compound	DC50
C[C@@H]1CNc2c(sc3ccc4nc(-c5cccc(N6CCN(CCN7CCC(CCc8cccc9c8n(C)c(=O)n9C8CCC(=O)NC8=O)CC7)CC6)c5)ccc4c23)C(=O)N1 (stereo partly shown) [Compound I-105]	< 1 nM
C[C@@H]1CNc2c(sc3ccc4nc(-c5ccc(N6CCN(CC7CCN(c8ccc(N9CCC(=O)NC9=O)cc8)CC7)CC6)nc5)ccc4c23)C(=O)N1 [Compound I-438]	1 to 10 nM
C[C@@H]1CNc2c(sc3ccc4nc(-c5ccc(N6CCN(C[C@H]7C[C@H](c8ccc9c(c8)n(C)c(=O)n9C8CCC(=O)NC8=O)C7)CC6)cc5)ccc4c23)C(=O)N1 (stereo partly shown) [Compound I-222]	< 1 nM
C[C@@H]1CNc2c(sc3ccc4nc(N5CC6CCC(C5)N6CC5CCN(c6cccc7c6n(C)c(=O)n7C6CCC(=O)NC6=O)CC5)ccc4c23)C(=O)N1 (stereo partly shown) [Compound I-436]	> 100 nM
